Origin of the recorded values: patent US20230151068A1

- target or system: biotinylated His-Avi-TEAD (194-411) (UniProt P28347)
- procedure text: SSM screen, enrichment after two rounds of sorting
reported property: enrichment score

Worked cases, enrichment score given:
[
  {
    "binder": "GSPDEYIGRAKECCKKGDIQCCLRYFEESGDPNVMLICLFCP (designed binder) [E06G variant of SEQ ID NO: 1]",
    "value reported": -1.15
  },
  {
    "binder": "GSPDEYIERAYECCKKGDIQCCLRYFEESGDPNVMLICLFCP (designed binder) [K09Y variant of SEQ ID NO: 1]",
    "value reported": -4.96
  },
  {
    "binder": "GSPDEYSERAKECCKKGDIQCCLRYFEESGDPNVMLICLFCP (designed binder) [I05S variant of SEQ ID NO: 1]",
    "value reported": -2.04
  },
  {
    "binder": "GSPWEYIERAKECCKKGDIQCCLRYFEESGDPNVMLICLFCP (designed binder) [D02W variant of SEQ ID NO: 1]",
    "value reported": -2.95
  },
  {
    "binder": "GSPDEYILRAKECCKKGDIQCCLRYFEESGDPNVMLICLFCP (designed binder) [E06L variant of SEQ ID NO: 1]",
    "value reported": -0.4
  }
]

A = GSPDEYIERAKECCKWGDIQCCLRYFEESGDPNVMLICLFCP (designed binder) [K14W variant of SEQ ID NO: 1]
B = GSPDEYIERAKECCKKGDIICCLRYFEESGDPNVMLICLFCP (designed binder) [Q18I variant of SEQ ID NO: 1]
C = GSPQEYIERAKECCKKGDIQCCLRYFEESGDPNVMLICLFCP (designed binder) [D02Q variant of SEQ ID NO: 1]
D = GSPDEYQERAKECCKKGDIQCCLRYFEESGDPNVMLICLFCP (designed binder) [I05Q variant of SEQ ID NO: 1]
Number of binders to sort: 4. Sort criterion: enrichment score, ascending. List the labels in the requested order.
B, A, D, C
(B: -11.4, A: -2.64, D: -1.23, C: -0.2)
